Format: in vivo, human
PROTOCOL CONDITIONS: subject S02; k1 x unesterified ALA 4.74 nmol/mL
In this section, each of the compounds is paired with its reported Jsyn (whole body synthesis-secretion rate from circulating unesterified 18:3n-3).
Form entry: value (nmol/min) — number only.

Some entries whose results are on file:
* CC/C=C\C/C=C\C/C=C\C/C=C\C/C=C\C/C=C\CCC(=O)O [DHA, Docosahexaenoic acid] | 0.56
* CC/C=C\C/C=C\C/C=C\C/C=C\C/C=C\CCCC(=O)O [EPA, eicosapentaenoic acid] | 6.09
* CC/C=C\C/C=C\C/C=C\C/C=C\C/C=C\CCCCCCCC(=O)O [TPAn-3, tetracosapentaenoic acid] | 0.58

Let's switch to this compound now.
Form field: reported Jsyn (whole body synthesis-secretion rate from circulating unesterified 18:3n-3) of CC/C=C\C/C=C\C/C=C\C/C=C\C/C=C\CCCCCC(=O)O [DPAn-3, docosapentaenoic acid]
11.0
